Data origin: patent US20240382677A1

Target: full length human PD-1 on HEK293/hPD-1 cells (human)
Assay: FACS, 100 nM antibody, HEK293/hPD-1 cells
Measurement Type: MFI (MFI)
Answer format: numeric, MFI implied, no suffix.

(Q) Tell me the measured MFI of H2aM7796N (antibody, mouse IgG2a, V domains shown) VH: QVQLVESGGGVVQPGRSLRLSCAASGFTFSSYGMHWVRQAPGKGLEWVAIIWSDGDSEYNLDSVKGRFTISRDNSKNTLYLQMNSLRVEDSAVYYCARDRDLEDIWGQGTMVTVSS VL: DIQMTQSPSSLSASVGDRVTITCRASQGIRNDLGWYQQKPGKAPKRLIYAASNLQSGVPSRFSGSGSGTEFTLTISSLQPEDFATYYCLQHNSYPLTFGGGTKVEIK , please.
(A) 49800

(Q) Can you look up the measured MFI of H2aM7798N (antibody, mouse IgG2a, V domains shown) VH: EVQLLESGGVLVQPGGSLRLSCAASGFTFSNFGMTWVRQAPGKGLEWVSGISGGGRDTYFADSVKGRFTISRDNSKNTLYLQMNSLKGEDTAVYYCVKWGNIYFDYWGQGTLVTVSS VL: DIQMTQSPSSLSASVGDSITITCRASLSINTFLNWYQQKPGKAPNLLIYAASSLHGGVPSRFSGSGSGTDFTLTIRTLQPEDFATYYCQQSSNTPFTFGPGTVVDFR for me?
(A) 23400

(Q) If you can, please state the reported MFI value of H2aM7791N (antibody, mouse IgG2a, V domains shown) VH: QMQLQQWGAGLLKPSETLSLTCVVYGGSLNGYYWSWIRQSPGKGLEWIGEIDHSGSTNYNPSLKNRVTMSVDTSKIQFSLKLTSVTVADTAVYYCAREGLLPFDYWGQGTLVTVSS VL: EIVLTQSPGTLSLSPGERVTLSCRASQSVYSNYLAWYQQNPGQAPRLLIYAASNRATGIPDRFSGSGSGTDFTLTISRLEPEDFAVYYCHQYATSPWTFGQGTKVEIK .
(A) 4950

(Q) Requested field: MFI. Item: H2aM7780N (antibody, mouse IgG2a, V domains shown) VH: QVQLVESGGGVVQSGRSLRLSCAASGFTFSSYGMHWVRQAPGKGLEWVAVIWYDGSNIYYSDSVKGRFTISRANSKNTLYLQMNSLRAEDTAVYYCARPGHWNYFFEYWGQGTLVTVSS VL: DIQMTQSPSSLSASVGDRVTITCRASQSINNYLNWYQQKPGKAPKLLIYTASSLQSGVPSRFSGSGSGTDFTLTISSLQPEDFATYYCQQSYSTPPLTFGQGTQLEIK
(A) 23700

(Q) Which MFI value is on record for H2aM7795N (antibody, mouse IgG2a, V domains shown) VH: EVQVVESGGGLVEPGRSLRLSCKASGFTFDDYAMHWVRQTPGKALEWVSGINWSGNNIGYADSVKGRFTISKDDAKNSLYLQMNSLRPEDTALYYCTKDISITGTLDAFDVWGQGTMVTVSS VL: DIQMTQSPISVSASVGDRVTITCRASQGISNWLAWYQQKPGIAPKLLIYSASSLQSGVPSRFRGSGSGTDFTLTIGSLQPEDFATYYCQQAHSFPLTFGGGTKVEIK ?
(A) 817

(Q) Quick check: MFI of H1M7789N (antibody, mouse IgG1, V domains shown) VH: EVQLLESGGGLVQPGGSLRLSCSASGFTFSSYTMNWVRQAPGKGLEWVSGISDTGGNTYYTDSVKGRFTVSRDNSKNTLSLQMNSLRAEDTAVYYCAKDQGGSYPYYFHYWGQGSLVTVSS VL: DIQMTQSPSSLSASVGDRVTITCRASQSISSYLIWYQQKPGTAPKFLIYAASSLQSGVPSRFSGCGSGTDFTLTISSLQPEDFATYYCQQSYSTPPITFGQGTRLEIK ?
(A) 24200
